- measurement_description: Uncompetitive inhibition of Legionella pneumophila recombinant PAH for enzyme-substrate complex by […] assay using L-Phe as substrate
measurement_kind: Ki (µM)

| smiles_input | value_observed |
| --- | --- |
| O=C(O)c1cc([N+](=O)[O-])cc2c1-c1ccc([N+](=O)[O-])cc1/C2=N/O | 0.37 |

###

Below: a set of entries, each annotated with reported Activity.
- System: Legionella pneumophila
- measurement_description: Inhibition of Legionella pneumophila recombinant PAH assessed as residual activity by […] assay using 1 mM L-Phe as substrate and 200 uM BH4 as cofactor

| molecule | system_name | Activity [%] |
| --- | --- | --- |
| Cc1nccn1C1c2ccccc2CSc2sccc21 (stereo not given) | Legionella pneumophila | 2.2 |
| O=C(C1=C(O)C(=O)N(Cc2ccco2)C1c1ccc(Oc2ccccc2)cc1)c1cccs1 (stereo not given) | Legionella pneumophila | 1.53 |
| CN1CCN(c2cc(-c3ccccn3)nc3ccccc23)CC1 | Legionella pneumophila | 2.6 |
| CC1(C)CC(=O)C2=C(C1)NC1=C(C(=O)CC(C)(C)C1)C2c1cnc[nH]1 | Legionella pneumophila | 3.2 |
| CC(C)(C)c1ccc(C2C(C(=O)c3cccs3)=C(O)C(=O)N2c2nncs2)cc1 (stereo not given) | Legionella pneumophila | 4.2 |

###

- measurement_description: Uncompetitive inhibition of Legionella pneumophila recombinant PAH for free enzyme by […] assay using L-Phe as substrate
pKi: −log10 of the molar value.

| smiles_input | pKi |
| --- | --- |
| O=C(O)c1cc([N+](=O)[O-])cc2c1-c1ccc([N+](=O)[O-])cc1/C2=N/O | 4.70 |

###

- measurement_description: Mixed inhibition of Legionella pneumophila recombinant PAH for free enzyme by […] assay using L-Phe as substrate

| compound | Ki |
| --- | --- |
| c1ccc2c(c1)CSc1sccc1C2n1ccnc1 (stereo unspecified) | 2200 nM |

###

- measurement_description: Mixed inhibition of Legionella pneumophila recombinant PAH for enzyme-substrate complex by […] assay method using L-Phe as substrate
measurement_kind: Ki

| compound | measurement_kind | value_observed |
| --- | --- | --- |
| c1ccc2c(c1)CSc1sccc1C2n1ccnc1 (stereo unspecified) | Ki | 4.1 µM |

###

Let's look at some compounds and their measured Ki.
- measurement_description: Non-competitive inhibition of Legionella pneumophila recombinant PAH for enzyme-substrate complex by […] assay using BH4 as cofactor

| compound | Ki [nM] |
| --- | --- |
| c1ccc2c(c1)CSc1sccc1C2n1ccnc1 (configuration not stated) | 1700 |
| O=C(O)c1cc([N+](=O)[O-])cc2c1-c1ccc([N+](=O)[O-])cc1/C2=N/O | 1000 |

###

- measurement_description: Non-competitive inhibition of Legionella pneumophila recombinant PAH for free enzyme by […] assay using BH4 as cofactor
pKi: −log10 of the molar value.
measurement_kind: pKi

| molecule | value_observed |
| --- | --- |
| c1ccc2c(c1)CSc1sccc1C2n1ccnc1 (configuration not stated) | 5.70 |
| O=C(O)c1cc([N+](=O)[O-])cc2c1-c1ccc([N+](=O)[O-])cc1/C2=N/O | 6.00 |

###

- System: Legionella pneumophila
- measurement_description: Inhibition of Legionella pneumophila recombinant PAH assessed as residual activity by […] assay using 1 mM L-Phe as substrate and 200 uM BH4 as cofactor

| molecule | system_name | Activity |
| --- | --- | --- |
| S=C(NNC(=S)Nc1ccccc1)Nc1ccccc1 | Legionella pneumophila | 1.9% |
| c1ccc2c(c1)CSc1ccccc1C2n1ccnc1 (stereo not drawn) | Legionella pneumophila | 1.6% |
| Oc1cc(C(F)(F)F)nn1-c1nc2ccccc2s1 | Legionella pneumophila | 1.4% |
| O=c1cc(CO)oc(C(Nc2nccs2)c2ccc(F)cc2)c1O (stereo not drawn) | Legionella pneumophila | 0.1% |
| O=C(O)c1cc([N+](=O)[O-])cc2c1-c1ccc([N+](=O)[O-])cc1/C2=N/O | Legionella pneumophila | 0.1% |
| c1ccc2c(c1)CSc1sccc1C2n1ccnc1 (stereo not drawn) | Legionella pneumophila | 0.38% |
| c1ccc(-c2cc(N3CCCCC3)c3ccccc3n2)nc1 | Legionella pneumophila | 3.1% |
| O=C(C1=C(O)C(=O)N(c2nncs2)C1c1ccc(Cl)cc1)c1cccs1 (stereo not drawn) | Legionella pneumophila | 2.23% |
